From: patent US11446287B2

test.target: Recombinant human BRD4 containing dual bromodomains (BRD4-BD12 (1-477)) (Homo sapiens, UniProt O60885)
Construct: Recombinant human BRD4 containing dual bromodomains (BRD4-BD12 (1-477))
method: BRD4 Alphascreen binding assay
Field: IC50. Provide a value for each of the compounds that follow.

Enquiry: Please look up its IC50: `Cc1noc(C)c1-c1cnc2c(c1)c(-c1ccc(C(=O)O)cc1OC(F)(F)F)cn2-c1cncnc1`
Return: 1 to 8 µM

Enquiry: Entry `Cc1noc(C)c1-c1cnc2c(c1)c(-c1ccnc(C(=O)O)c1)cn2C(C1CC1)C1CC1` please
Return: 0.0001 to 1 µM

Enquiry: Entry `CCOc1cc(C(=O)O)cc(OCC)c1-n1cc(-c2ccc(C(=O)NC3CC3)cc2)c2ncc(-c3c(C)noc3C)cc21` please
Return: 1 to 8 µM

Enquiry: Entry Cc1noc(C)c1-c1cnc2c(c1)c(-c1ccccc1)cn2C(c1ccccn1)C1CCCC1 (centres unmarked) please
Return: 8 to 1000 µM

Enquiry: Entry `CCn1cc(-n2cc(-c3ccc(C(=O)O)cc3OCC(F)F)c3cc(-c4c(C)noc4C)cnc32)c(C)n1` please
Return: 8 to 1000 µM

Enquiry: Entry `Cc1noc(C)c1-c1cnc2c(c1)c(-c1c(Cl)cc(C(=O)O)cc1OC1CC1)cn2C1CCOCC1` please
Return: 1 to 8 µM

Enquiry: Entry `Cc1noc(C)c1-c1cnc2c(c1)c(-c1ccc(C(=O)O)cc1OC(F)(F)F)cn2C1CCOCC1` please
Return: 1 to 8 µM

Enquiry: Entry Cc1noc(C)c1-c1cnc2c(c1)c(-c1ccc(C(=O)O)cc1OC(F)(F)F)cn2C(CC#N)C1CCCC1 (centres unmarked) please
Return: 8 to 1000 µM
